Test: qHTS Assay for NPC1 Promoter Activators; note: nearly all actives have a fitted effect of over 60% in size;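 for activation: reporter is driven by a mutant NPC1 promoter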
Test Settings: Huh7 NPC1 promoter luciferase reporter, 24 h; series mostly up to 9.22 µM
Out of some 320,000 compounds screened, about 7,600 (2.4%) were called active. Another 3% or so got no clear call; they are omitted. Calls come from the whole dose curve; as a rule, active = well fitted activation curve with a large enough effect; inconclusive = small, poorly fitted or top-dose-only effect; inactive = no such curve, though single readings can be large or run the other way. The entries come from a sample that favours actives as a whole.
Tick one outcome: yes for active, no for inactive

# Molecule, Category
data = [
    ("COc1ccc(CCC(=O)N2CCN(S(=O)(=O)c3ccc(OC)cc3)CC2)cc1", "no"),
]

QUERY: Give the logged outcome of this assay for the following molecule: N#Cc1ccccc1NC(=O)c1cccc(COc2ccc(Cl)cc2Cl)c1
RESULT: yes

QUERY: // repeat for CN(C(=O)CSc1nnc(-c2ccc3c(c2)OCO3)o1)C1CCS(=O)(=O)C1 (stereo not drawn) and report
RESULT: no

QUERY: // repeat for Cc1cccc(C)c1OCCN1CCOCC1 and report
RESULT: no

QUERY: // repeat for Cc1cc(C)cc(NC(=O)N2CCCCCCC2)c1 and report
RESULT: no

QUERY: // repeat for CN(C)/C=C(\C#N)C(=O)c1cccnc1Oc1ccc(F)cc1F and report
RESULT: no

QUERY: // repeat for COc1ccc(C2Nc3ccccc3C(=O)N2c2ccc(F)cc2)cc1Cn1nnc2ccccc21 (stereo not drawn) and report
RESULT: no

QUERY: // repeat for CN(CC(=O)NCCc1ccc(F)cc1)CC(=O)Nc1ccc(F)c(F)c1F and report
RESULT: no

QUERY: // repeat for COc1ccc(N2C(=O)c3ccccc3NC2c2ccc(OC)c(CN3CCOCC3)c2)cc1 (stereo not drawn) and report
RESULT: yes

QUERY: // repeat for COc1ccc(Cn2c(O)c(/C=C3/C=CC=N3)c(=O)[nH]c2=O)cc1 and report
RESULT: no

QUERY: // repeat for Cc1nn2c(=O)cc(COC(=O)c3ccc(NC(=O)C(C)(C)C)cc3)nc2s1 and report
RESULT: no

QUERY: // repeat for COc1ccc2oc(=O)c(C(=O)N3CCCC3)cc2c1 and report
RESULT: no

###

Test: qHTS Assay for NPC1 Promoter Activators; note: nearly all actives have a fitted effect of over 60% in size; note: potency is the fitted concentration of half-maximal effect
Test Settings: Huh7 NPC1 promoter luciferase reporter, 24 h; series mostly up to 9.22 µM
About 7,600 (2.4%) of roughly 320,000 compounds were called active. Roughly 3% stayed inconclusive and do not appear here. Only a selection was taken, and actives are over-represented in it overall.
Observation Type: Potency

Examples with their reported Potency follow.
# Compound, Result
rows = [
    ("CCOc1ccc(NC(=O)CN(C)C(=O)CCSc2ccc(F)cc2)cc1OCC", "inactive"),
    ("CN1CCN(c2ccc(NC(=O)c3ccc4c(c3)OCCO4)cc2Cl)CC1", "3.55 µM (active)"),
    ("CC(NC(=O)COC(=O)c1ccc2c(c1)OCO2)c1ccccc1 (stereo unspecified)", "inactive"),
    ("Cc1ccccc1OCC(=O)Nc1ccc(S(=O)(=O)N2CCOCC2)cc1", "inactive"),
]

Respectfully, I request Potency for each entry included below.
1. OCCCN1c2ccccc2Nc2nnc(-c3ccccc3)cc21
2. Cc1ccccc1OCC(=O)Nc1ccc(N2CCN(C(=O)C(C)C)CC2)c(Cl)c1

RESULT:
1. 2.24 µM (active)
2. inactive

Respectfully, I request Potency for each entry included below.
1. c1ccc(-c2cc(-c3ccccc3)[nH]n2)cc1
2. O=C(Nc1ccccc1N1CCN(C(=O)c2ccccc2)CC1)c1ccc2c(c1)OCO2
3. Cc1ccccc1OCC(=O)Nc1ccc2c(c1)ncn2C
4. CN(CCC1CCOCC1)Cc1cn[nH]c1-c1ccc(-c2ccccc2)cc1
5. Cc1ccc(S(=O)(=O)N2CCN(c3ncnc4ccccc34)CC2)cc1

RESULT:
1. inactive
2. inactive
3. 6.31 µM (active)
4. inactive
5. inactive
